The origin of these recorded values is PubChem BioAssay (NCI).

System: NCI-H522 lung
Measurement description: NCI tumour cell line growth inhibition, 48 h; in the data active = GI50 below about 0.43 µM; inactive = the rest
Permitted responses: 1 = active, -1 = inactive

Exercise: Dear colleague, could you share the recorded outcome for `O=C([O][Sn]([O]C(=O)c1ccccn1)([c]1ccccc1)[c]1ccccc1)c1ccccn1` when you have a moment?
Solution: 1

Exercise: Moving on to C=C1CCC2(C#N)[C@H]3[C@H](CC[C@@H]2C)[C@@H](C)C[C@@H](CC(C)(C)NC(=O)CN2CCC2=O)[C@H]13 (some centres not stated)
Solution: -1

Exercise: Moving on to `COc1ccc(-c2nc(-c3nc4ccc(F)cc4[nH]3)c3ccccn23)cc1`
Solution: -1

Exercise: Moving on to `Cn1cc(C2=C(c3cn(C)c4ccc(Cl)cc34)C(=O)NC2=O)c2ccccc21`
Solution: -1

Exercise: Moving on to `C=CC(=O)Nc1cc(N2CCN(CC)CC2)ccc1Nc1cc(N(C)C(=O)Nc2c(Cl)c(OC)cc(OC)c2Cl)ncn1`
Solution: -1

Exercise: Moving on to `CC1=C2C(=CO[C@H](C)[C@H]2C)C(=O)C(C(=O)O)=C1O`
Solution: -1

Exercise: Moving on to `Cc1nnc2n1N=C(c1ccc(Cl)cc1Cl)/C(=C/c1ccc(-c3ccc([N+](=O)[O-])cc3Cl)o1)S2`
Solution: -1

Exercise: Moving on to O=c1/c(=C\c2ccc(F)cc2)sc2n1C(c1ccc(F)cc1)C1=C(N=2)c2ccc3ccccc3c2OCC1 (configuration not stated)
Solution: -1

Exercise: Moving on to `CCN(c1cc(-c2ccc(CN3CCOCC3)cc2)cc(C(=O)NCc2c(C)cc(C)[nH]c2=O)c1C)C1CCOCC1`
Solution: -1

Exercise: Moving on to O=C(c1ccccc1)c1c(NCC(O)CN2CCOCC2)n(Cc2ccccc2)c(=O)n(Cc2ccccc2)c1=O (configuration not stated)
Solution: -1

Exercise: Moving on to `Cc1nn2c(/C=C3/C(=O)Nc4cc(Cl)ccc43)c(-c3ccccc3)nc2s1`
Solution: -1

Exercise: Moving on to COc1ccc(C(O)c2cc3c(N)c(C(=O)Nc4cccc(Cl)c4)sc3nc2C)cc1 (configuration not stated)
Solution: -1

---

Record set of GI50 for target or system U251 CNS.

Exercise: # GI50 lookup, item `COc1ccc2[nH]c(O)c(/C=c3/cc4c(c(-c5ccc(F)c(OC)c5)n3)=Nc3ccccc3-4)c2c1`
Solution: 1.7 µM

Exercise: Moving on to `C#Cc1nc2ccccc2c(=O)[nH]1`
Solution: 1.66 µM

Exercise: Moving on to `N.N.N.N.N.O=[N+]([O-])[O-].[Co+3].[O-][Cl+3]([O-])([O-])[O-]`
Solution: > 100 µM

Exercise: Moving on to `COc1ncnc(S(=O)(=O)c2ccc(N=C3C(=O)N(CN4CCN(c5cc6c(cc5F)c(=O)c(C(=O)O)cn6C5CC5)CC4)c4ccc(Cl)cc43)cc2)c1OC`
Solution: 18.7 µM

Exercise: Moving on to O=P1(S)OC[C@H]2O[C@@H]3[C@H](F)[C@@H]2OP(O)(=S)OC[C@H]2O[C@H]([C@H](F)[C@@H]2O1)n1cnc2c(ncnc21)NC/C=C/CNc1ncnc2c1ncn23 (some centres not stated)
Solution: > 100 µM

Exercise: Moving on to O=c1/c(=C\c2ccc(F)cc2)sc2n1C(c1ccc(F)cc1)C1=C(N=2)c2ccc3ccccc3c2OCC1 (configuration not stated)
Solution: > 100 µM

Exercise: Moving on to `Cc1nnc2n1N=C(c1ccc(Cl)cc1Cl)/C(=C/c1ccc(-c3ccc([N+](=O)[O-])cc3Cl)o1)S2`
Solution: 14.9 µM

Exercise: Moving on to `O=c1cc(N/N=C/c2ccc(F)cc2)c2cc(Cl)ccc2[nH]1`
Solution: 21.1 µM

Exercise: Moving on to `c1ccc(-c2nc(N3CCOCC3)c3c4c(sc3n2)CCCCCC4)nc1`
Solution: 4.38 µM

Exercise: Moving on to `Cc1nc(Nc2cccnc2)sc1C(=O)/C=C/c1ccc(Cl)cc1`
Solution: 1.81 µM

Exercise: Moving on to `COC(=O)COc1ccc(/C=C2/N=C(c3ccccc3)N(c3c(C)n(C)n(-c4ccccc4)c3=O)C2=O)cc1`
Solution: 67.6 µM

Exercise: Moving on to `O=C([O][Sn]([O]C(=O)c1ccccn1)([c]1ccccc1)[c]1ccccc1)c1ccccn1`
Solution: 1.95 µM

Exercise: Moving on to Cc1cc(O)c(C2=NN(c3ccc(S(N)(=O)=O)cc3)C(c3ccc(Cl)cc3)C2)c(C)c1Cl (configuration not stated)
Solution: 3.34 µM

Exercise: Moving on to `S=c1nc(N/N=C/c2ccco2)c2cn[nH]c2[nH]1`
Solution: > 100 µM

Exercise: Moving on to `COc1ccc(C(=O)NNc2nc(Cl)nc(N3CCN(C(c4ccccc4)c4ccccc4)CC3)n2)cc1`
Solution: 1.8 µM

Exercise: Moving on to `CSCCCNC(=O)c1ccc2c(c1)/C(=C/c1[nH]c(C)cc1C)C(=O)N2`
Solution: 0.675 µM

Exercise: Moving on to `CN(C)c1nc2ccccc2c2c1c1c(n2Cc2ccccc2)-c2ccccc2C1=O`
Solution: > 100 µM

---

System: HCT-116 colon
Measurement description: NCI tumour cell line growth inhibition, 48 h; in the data active means GI50 below about 0.43 µM; inactive means the rest
Permitted responses: 1 for active, 0 for inactive

Exercise: Dear colleague, could you share the recorded outcome for `C1CC[N-]CC1.CC(=N\O)/C(C)=N/O.CC(=N\O)/C(C)=N/O.OC1[CH-]CCCC1.[Co+2]` when you have a moment?
Solution: 0

Exercise: Moving on to COc1cc2c(cc1OCCCCCCN1CCN(CC(=O)Nc3ccc(Cl)cc3C(=O)c3ccccc3Cl)CC1)N=CC1CCCN1C2=O (centres undefined)
Solution: 1

Exercise: Moving on to `Cc1nc(Nc2cccnc2)sc1C(=O)/C=C/c1ccc(Cl)cc1`
Solution: 0

Exercise: Moving on to `CN(C)c1nc2ccccc2c2c1c1c(n2Cc2ccccc2)-c2ccccc2C1=O`
Solution: 0

Exercise: Moving on to O=P1(S)OC[C@H]2O[C@@H]3[C@H](F)[C@@H]2OP(O)(=S)OC[C@H]2O[C@H]([C@H](F)[C@@H]2O1)n1cnc2c(ncnc21)NC/C=C/CNc1ncnc2c1ncn23 (some centres undefined)
Solution: 0

Exercise: Moving on to `COc1ccc(C(=O)NNc2nc(Cl)nc(N3CCN(C(c4ccccc4)c4ccccc4)CC3)n2)cc1`
Solution: 0

Exercise: Moving on to C=C1CCC2(C#N)[C@H]3[C@H](CC[C@@H]2C)[C@@H](C)C[C@@H](CC(C)(C)NC(=O)CN2CCC2=O)[C@H]13 (some centres undefined)
Solution: 0

Exercise: Moving on to `COc1cnc2c(c1)C(=O)c1c-2n(CCCNCCO)c(=O)c2ccncc12`
Solution: 0

Exercise: Moving on to O=c1/c(=C\c2ccc(F)cc2)sc2n1C(c1ccc(F)cc1)C1=C(N=2)c2ccc3ccccc3c2OCC1 (centres undefined)
Solution: 0

Exercise: Moving on to `COc1ccc(-c2nc(-c3nc4ccc(F)cc4[nH]3)c3ccccn23)cc1`
Solution: 0

Exercise: Moving on to `Cc1nc2c(n1C)C(=O)c1ccccc1C2=O`
Solution: 0

Exercise: Moving on to O=C(c1ccccc1)c1c(NCC(O)CN2CCOCC2)n(Cc2ccccc2)c(=O)n(Cc2ccccc2)c1=O (centres undefined)
Solution: 0

Exercise: Moving on to `COC(=O)COc1ccc(/C=C2/N=C(c3ccccc3)N(c3c(C)n(C)n(-c4ccccc4)c3=O)C2=O)cc1`
Solution: 0

Exercise: Moving on to `C1=C2CCCC3=Cc4ccccc4OC23Oc2ccccc21`
Solution: 0

---

So I've got a bunch of molecules here, and I need their TGI values.
Test system: MDA-MB-435
Measurement description: NCI tumour cell line growth inhibition, 48 h
Quick reminder: number only, in µM, skip the unit.

Exercise: Request - read-out TGI | tested on MDA-MB-435 | molecule COc1cc(C2c3cc4c(cc3C3OC[C@@H]2C3CO)OCO4)cc(OC)c1OC (stereo not given in full)
Solution: 51.1

Exercise: Moving on to `O=c1[nH]c2ccccc2n1CCCN1CCC(n2c(=O)[nH]c3cc(Cl)ccc32)CC1`
Solution: 29.7

---

So I've got a bunch of molecules here, and I need their TGI values.
Test system: A498 renal
Measurement description: NCI tumour cell line growth inhibition, 48 h

Exercise: Request - read-out TGI | tested on A498 renal | molecule `Cc1nc2ccc(NC(=O)CCNC(=O)CCCc3ccc(CC(C(=O)O)C(=O)O)cc3)cc2s1`
Solution: > 100 µM

Exercise: Moving on to NNC(=O)C(=O)N/N=C1\CCC(=O)CC1C(=O)CCC(=O)Nc1ccc(Cl)cc1 (stereo not given)
Solution: > 100 µM

Exercise: Moving on to CC(C)Cc1ccc(C(C)CC2=CCC(CN(C)C)C2=O)cc1 (stereo not given)
Solution: 33.4 µM

Exercise: Moving on to `O=C1c2c(O)cccc2-c2nn(CCNCCO)c3ccc(NCCNCCO)c1c23`
Solution: 0.578 µM

Exercise: Moving on to `Cc1ccccc1N=C(N)Nc1ccccc1C`
Solution: > 100 µM

Exercise: Moving on to `COc1cccc(N=N/C(=N\NC(=O)c2ccc(C)cc2)c2ccc(N(CCC#N)CCC#N)cc2C)c1`
Solution: > 100 µM

Exercise: Moving on to `Cc1cc(N=C2C=C(Br)C(=O)C(Br)=C2)cc(CN(CC(=O)O)CC(=O)O)c1O`
Solution: > 100 µM

Exercise: Moving on to C=C(C)CC1(O[Si](C)(C)C)C(=O)C(OCC)=C1OCC (stereo not given)
Solution: > 100 µM

Exercise: Moving on to `O=c1[nH]c2ccccc2n1CCCN1CCC(n2c(=O)[nH]c3cc(Cl)ccc32)CC1`
Solution: 42.9 µM

Exercise: Moving on to CCCCCCCCCCCCCCCCCCNc1nc(=O)n(C2CC(O)C(COP(=O)(O)O)O2)cc1F (stereo not given)
Solution: > 100 µM
